Assay: yeast display, Sf9 membrane polyspecificity reagent, FACS + sequencing; frameworks hold sequencing errors
quantity_kind: polyreactivity (PSR sort gate)

# primary_sequence, quantity_kind, reported_measurement
records = [
    ("QVQLVESGGGLVQAGGSLRLSCAASGRTFSWYVMGWSRQAPGKERALVAAISWNGGRTYYADSVKGRFTISRDNAKNTVYLQMNRLKPEDTAVYYCATGPDPKYDYWGQGTQVTVSS", "polyreactivity (PSR sort gate)", "high polyreactivity"),
    ("QVQLVESGGGLVQSGGSLRLSCAASGSTLYFKAMGWYRQAPGKERDLVAAITYDGGSTYYADSVKGRFTISRDNAKNTVYLQMNSLKPEDTAVYYCAGRTDGYRNNYWGQGTQVTVSS", "polyreactivity (PSR sort gate)", "high polyreactivity"),
]
